Values compiled from PubChem BioAssay AID1159580.

// values below are reported normalized growth
# protocol.description: chemical genetic growth profiling, strain panel (AID 1159580);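 also: tested at 20 µM; growth read once vehicle control cultures reached saturation at 30 °C; 1 = growth at the plate median or of vehicle wells; lower values mean less growth of the strain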
# condition.notes: S. cerevisiae deletion strains, growth OD, locus YPR167C, strain met16, stronger effect = lower value
Out of some 5,500 compounds screened, about 2,000 (36%) were called active. Inconclusive results (about 18%) are left out. The list shows a part of the results.
Reply with just the number.

Ask: Look up normalized growth for this compound: COC(=O)CCC(=O)O[C@H]1CCC2(C)C(CCC3C2C(=O)[C@@H](O)C2(C)C3CC3OC4(CCC(C)CO4)[C@@H](C)C32)C1 (stereo partly drawn)
Result: 1

Ask: Look up normalized growth for this compound: C=C1C2=CC(=O)O[C@@H](c3ccoc3)[C@]2(C)CCC1[C@@]1(C)C=CC(=O)C(C)(C)[C@@H]1CC(=O)OC (stereo partly drawn)
Result: 0.992
